# experimental protocol: Cytotoxicity against mouse L5178Y cells
# Format: cell-based
parameter measured: CC50
Write the numeric value and follow it with the unit.

So for `COC(=O)N(C)c1cc2c(NCc3ccc(OC)c(Cl)c3)ncnc2c(CCO)c1OC` , the logged CC50 turned out to be 85 µM

====

# system name: cGMP-specific 3',5'-cyclic phosphodiesterase (Bos taurus, UniProt Q28156)
# experimental protocol: Inhibition of bovine platelet PDE5
Recorded IC50 values for a group of compounds are listed next.
Give the value in nM but do not write nM after it.

Item: `COc1ccc(CNc2ncnc3c(CCO)c(OC)c(NS(C)(=O)=O)cc23)cc1Cl` | IC50: 11

IC50 measured on `COc1ccc(CNc2ncnc3c(CCO)c(OC)c(NS(=O)(=O)N(C)C)cc23)cc1Cl` = 12

Measured IC50 of `CCC(=O)N(C)c1cc2c(NCc3ccc(OC)c(Cl)c3)ncnc2c(CCO)c1OC` : 1

Please turn your attention to the following entry.
IC50 recorded for this compound, `COC(=O)N(C)c1cc2c(NCc3ccc(OC)c(Cl)c3)ncnc2c(CCO)c1OC` , is 0.6

====

# experimental protocol: AUClast in rabbit at 10 mg/kg, po
# Format: ADME, organism-based, Oryctolagus cuniculus
# Design: time 0 - last, dose 10 mg/kg, route oral
# run parameters: plasma
parameter measured: AUC(0-t) (ng·h/mL)
Kindly answer with a numeric value in ng·h/mL, unit omitted.

Form: compound = `COC(=O)N(C)c1cc2c(NCc3ccc(OC)c(Cl)c3)ncnc2c(CCO)c1OC.Cl` ; AUC(0-t) = 2760

====

# system name: hERG (KCNH2) (Homo sapiens, UniProt Q12809)
# Sequence (Q12809 whole entry): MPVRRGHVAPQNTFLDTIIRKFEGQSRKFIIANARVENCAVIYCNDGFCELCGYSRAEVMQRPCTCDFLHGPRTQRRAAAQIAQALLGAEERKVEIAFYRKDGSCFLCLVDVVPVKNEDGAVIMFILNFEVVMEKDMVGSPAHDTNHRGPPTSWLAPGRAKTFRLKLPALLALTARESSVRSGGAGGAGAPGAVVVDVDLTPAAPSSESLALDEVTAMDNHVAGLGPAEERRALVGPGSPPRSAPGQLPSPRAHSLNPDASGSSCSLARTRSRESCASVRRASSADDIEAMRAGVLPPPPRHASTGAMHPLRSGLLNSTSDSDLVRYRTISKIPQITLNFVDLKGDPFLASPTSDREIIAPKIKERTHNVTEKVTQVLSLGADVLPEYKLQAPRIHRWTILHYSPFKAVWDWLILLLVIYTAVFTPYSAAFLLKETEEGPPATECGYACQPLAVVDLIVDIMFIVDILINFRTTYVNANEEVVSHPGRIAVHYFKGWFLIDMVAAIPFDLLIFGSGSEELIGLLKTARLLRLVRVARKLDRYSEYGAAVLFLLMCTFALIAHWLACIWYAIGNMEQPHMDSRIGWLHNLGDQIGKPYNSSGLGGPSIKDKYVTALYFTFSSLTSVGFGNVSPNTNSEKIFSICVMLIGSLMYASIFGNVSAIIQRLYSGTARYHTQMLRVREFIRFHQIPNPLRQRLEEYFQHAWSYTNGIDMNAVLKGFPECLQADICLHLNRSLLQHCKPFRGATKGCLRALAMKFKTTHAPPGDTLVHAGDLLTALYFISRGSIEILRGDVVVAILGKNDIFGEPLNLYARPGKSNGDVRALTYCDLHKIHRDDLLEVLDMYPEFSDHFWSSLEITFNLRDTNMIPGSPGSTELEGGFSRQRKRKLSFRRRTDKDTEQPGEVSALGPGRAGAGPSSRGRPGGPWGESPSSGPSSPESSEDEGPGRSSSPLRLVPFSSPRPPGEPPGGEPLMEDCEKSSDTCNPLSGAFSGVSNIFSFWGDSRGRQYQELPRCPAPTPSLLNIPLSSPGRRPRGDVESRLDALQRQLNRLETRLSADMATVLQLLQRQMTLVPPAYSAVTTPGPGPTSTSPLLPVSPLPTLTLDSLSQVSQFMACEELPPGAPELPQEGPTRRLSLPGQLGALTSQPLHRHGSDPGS
# experimental protocol: Inhibition of human ERG at 10 uM
parameter measured: inhibition at 10 µM

In plain terms, `COC(=O)N(C)c1cc2c(NCc3ccc(OC)c(Cl)c3)ncnc2c(CCO)c1OC` has a documented inhibition at 10 µM of < 20%

====

# experimental protocol: Tmax in rabbit at 10 mg/kg, po
# Format: ADME, organism-based, Oryctolagus cuniculus
# Design: dose 10 mg/kg, route oral
# run parameters: in vivo
parameter measured: Tmax
Put down the number, then write its unit next to it.

Summary for this molecule, `COC(=O)N(C)c1cc2c(NCc3ccc(OC)c(Cl)c3)ncnc2c(CCO)c1OC.Cl` : Tmax is 2.4 h

====

# experimental protocol: Metabolic stability in rabbit liver microsomes assessed as compound remaining after 1 hr
# Format: ADME, Oryctolagus cuniculus, Microsome
# run parameters: read-out: Stability
parameter measured: remaining at 1 h

Item: `CCC(=O)Nc1cc2c(NCc3ccc(OC)c(Cl)c3)ncnc2c(CCO)c1OC` | remaining at 1 h: 85%

Could you now look at the following molecule, please?
# molecule `CCC(=O)N(C)c1cc2c(NCc3ccc(OC)c(Cl)c3)ncnc2c(CCO)c1OC` ; its remaining at 1 h = > 90%

====

# system name: Rod cGMP-specific 3',5'-cyclic phosphodiesterase subunit alpha (Bos taurus, UniProt P11541)
# Sequence (P11541 whole entry): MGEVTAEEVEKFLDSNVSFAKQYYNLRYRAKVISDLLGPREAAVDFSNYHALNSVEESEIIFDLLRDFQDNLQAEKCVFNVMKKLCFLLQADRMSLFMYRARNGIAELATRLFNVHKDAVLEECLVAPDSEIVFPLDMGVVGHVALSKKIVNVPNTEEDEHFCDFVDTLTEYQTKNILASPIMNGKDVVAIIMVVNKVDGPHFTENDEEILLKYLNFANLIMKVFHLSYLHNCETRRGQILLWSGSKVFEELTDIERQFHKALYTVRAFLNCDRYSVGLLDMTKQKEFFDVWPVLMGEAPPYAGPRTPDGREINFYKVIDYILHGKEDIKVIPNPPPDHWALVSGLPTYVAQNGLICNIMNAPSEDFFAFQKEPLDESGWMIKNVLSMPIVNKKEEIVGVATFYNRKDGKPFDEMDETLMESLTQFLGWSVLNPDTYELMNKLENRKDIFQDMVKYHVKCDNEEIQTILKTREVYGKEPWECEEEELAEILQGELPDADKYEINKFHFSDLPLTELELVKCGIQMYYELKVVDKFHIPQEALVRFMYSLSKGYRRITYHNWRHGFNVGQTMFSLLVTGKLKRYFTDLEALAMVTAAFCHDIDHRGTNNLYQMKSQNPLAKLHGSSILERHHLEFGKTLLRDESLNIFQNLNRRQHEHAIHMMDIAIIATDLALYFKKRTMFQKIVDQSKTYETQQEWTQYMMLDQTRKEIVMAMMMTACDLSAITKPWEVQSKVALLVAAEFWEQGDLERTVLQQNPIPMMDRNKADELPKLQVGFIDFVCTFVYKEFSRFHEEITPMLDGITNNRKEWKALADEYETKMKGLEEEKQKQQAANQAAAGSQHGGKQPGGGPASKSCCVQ
# experimental protocol: Inhibition of bovine retina PDE6
parameter measured: pIC50
On this scale, pIC50 is minus log10 of a concentration expressed in M (mol/L).

As a guide, the following entries are already answered.
// `CN1CC(=O)N2[C@H](c3ccc4c(c3)OCO4)c3[nH]c4ccccc4c3C[C@@H]2C1=O` : pIC50 value = 5.52

Kindly note the recorded pIC50 for `COc1ccc(CNc2ncnc3c(CCO)c(OC)c(NS(=O)(=O)N(C)C)cc23)cc1Cl` , which is 5.10

New cases:
`CCOC(=O)Nc1cc2c(NCc3ccc(OC)c(Cl)c3)ncnc2c(CCO)c1OC` yielded pIC50 of 6.22

Form: molecule = `COC(=O)Nc1cc2c(NCc3ccc(OC)c(Cl)c3)ncnc2c(CCO)c1OC` ; pIC50 = 6.15

====

# experimental protocol: Half life in rabbit at 10 mg/kg, po
# Format: ADME, organism-based, Oryctolagus cuniculus
# Set-up: dose 10 mg/kg, route oral
# run parameters: in vivo
parameter measured: half-life (h)
Field: numeric (h). Do not append units.

Looking up `COC(=O)N(C)c1cc2c(NCc3ccc(OC)c(Cl)c3)ncnc2c(CCO)c1OC.Cl` , I found its half-life recorded as 4.2

====

# experimental protocol: Cmax in rat at 10 mg/kg, po
# Type: ADME, organism-based
# Set-up: dose 10 mg/kg, route oral
# run parameters: in vivo
parameter measured: Cmax (ng/mL)
# value in ng/mL; strip the unit string

The molecule identified as `COC(=O)N(C)c1cc2c(NCc3ccc(OC)c(Cl)c3)ncnc2c(CCO)c1OC.Cl` registered its Cmax at 420

====

# experimental protocol: Half life in rat at 10 mg/kg, po
# Format: ADME, organism-based
# Set-up: dose 10 mg/kg, route oral
# run parameters: in vivo
parameter measured: half-life

Measured half-life, `COC(=O)N(C)c1cc2c(NCc3ccc(OC)c(Cl)c3)ncnc2c(CCO)c1OC.Cl` : 2.25 h

====

# experimental protocol: Metabolic stability in human liver microsomes assessed as compound remaining after 1 hr
# Type: ADME, Microsome
# run parameters: read-out: Stability
parameter measured: remaining at 1 h (%)
Expressed in %, but write only the number.

These recorded examples may help you get a feel for the data.
The reported value for `COc1ccc(CNc2ncnc3c(CCO)c(OC)c(N(C)C(=O)C4CC4)cc23)cc1Cl` in terms of remaining at 1 h is 25

For reference, reported remaining at 1 h for `COC(=O)Nc1cc2c(NCc3ccc(OC)c(Cl)c3)ncnc2c(CCO)c1OC` stands at 72

# remaining at 1 h of `CCC(=O)N(CC)c1cc2c(NCc3ccc(OC)c(Cl)c3)ncnc2c(CCO)c1OC` = 5.5

Sample `COC(=O)N(C)c1cc2c(NCc3ccc(OC)c(Cl)c3)ncnc2c(CCO)c1OC` ; remaining at 1 h observed: 85

New cases:
// remaining at 1 h value for `CCC(=O)Nc1cc2c(NCc3ccc(OC)c(Cl)c3)ncnc2c(CCO)c1OC` : 3

The reported remaining at 1 h of the molecule `CCC(=O)N(C)c1cc2c(NCc3ccc(OC)c(Cl)c3)ncnc2c(CCO)c1OC` was 16

remaining at 1 h measured on `COc1ccc(CNc2ncnc3c(CCO)c(OC)c(N(C)C(=O)C(C)C)cc23)cc1Cl` = 4.8

====

Recorded measurements of IC50, one per entry
# system name: Dual 3',5'-cyclic-AMP and -GMP phosphodiesterase 11A (Homo sapiens, UniProt Q9HCR9)
# Sequence (Q9HCR9 whole entry): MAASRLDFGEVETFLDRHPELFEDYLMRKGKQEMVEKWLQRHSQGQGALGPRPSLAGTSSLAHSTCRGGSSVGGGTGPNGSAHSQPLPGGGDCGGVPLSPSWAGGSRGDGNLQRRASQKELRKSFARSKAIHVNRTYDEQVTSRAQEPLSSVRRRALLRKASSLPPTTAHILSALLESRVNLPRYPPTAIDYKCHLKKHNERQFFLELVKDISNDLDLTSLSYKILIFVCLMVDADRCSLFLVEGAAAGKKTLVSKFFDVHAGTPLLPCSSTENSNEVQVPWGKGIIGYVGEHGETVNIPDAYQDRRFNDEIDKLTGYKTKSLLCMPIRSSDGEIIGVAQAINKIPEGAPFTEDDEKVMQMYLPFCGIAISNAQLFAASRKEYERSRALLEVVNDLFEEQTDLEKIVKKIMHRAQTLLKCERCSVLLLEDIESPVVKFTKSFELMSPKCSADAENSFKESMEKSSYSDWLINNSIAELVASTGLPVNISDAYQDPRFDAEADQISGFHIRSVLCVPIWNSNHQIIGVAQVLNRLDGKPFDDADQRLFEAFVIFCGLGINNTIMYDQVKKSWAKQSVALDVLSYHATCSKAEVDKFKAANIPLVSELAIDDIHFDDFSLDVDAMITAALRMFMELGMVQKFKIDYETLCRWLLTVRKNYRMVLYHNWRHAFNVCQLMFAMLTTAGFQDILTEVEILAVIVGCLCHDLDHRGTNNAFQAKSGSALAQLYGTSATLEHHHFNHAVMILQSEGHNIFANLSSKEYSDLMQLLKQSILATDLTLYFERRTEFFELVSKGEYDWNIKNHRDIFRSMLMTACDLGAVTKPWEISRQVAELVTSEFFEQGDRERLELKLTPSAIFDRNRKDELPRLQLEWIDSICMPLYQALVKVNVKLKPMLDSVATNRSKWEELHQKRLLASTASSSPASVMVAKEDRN
# experimental protocol: Inhibition of human recombinant PDE11
Respond with the bare value in µM.

Solved entries (count: 3):
Note to self: IC50 of `COC(=O)N(C)c1cc2c(NCc3ccc(OC)c(Cl)c3)ncnc2c(CCO)c1OC` with Dual 3',5'-cyclic-AMP and -GMP phosphodiesterase 11A (Homo sapiens, UniProt Q9HCR9) was 12

Bench note, Dual 3',5'-cyclic-AMP and -GMP phosphodiesterase 11A (Homo sapiens, UniProt Q9HCR9): `CCC(=O)N(C)c1cc2c(NCc3ccc(OC)c(Cl)c3)ncnc2c(CCO)c1OC` , IC50 reads 5.2

IC50 for Dual 3',5'-cyclic-AMP and -GMP phosphodiesterase 11A (Homo sapiens, UniProt Q9HCR9) with input `COC(=O)Nc1cc2c(NCc3ccc(OC)c(Cl)c3)ncnc2c(CCO)c1OC` equals 5.7

Here is the next item to consider.
Fill in: Dual 3',5'-cyclic-AMP and -GMP phosphodiesterase 11A (Homo sapiens, UniProt Q9HCR9) IC50 for `CCOC(=O)Nc1cc2c(NCc3ccc(OC)c(Cl)c3)ncnc2c(CCO)c1OC` = 5

====

# experimental protocol: Cmax in rabbit at 10 mg/kg, po
# Assay type: ADME, organism-based, Oryctolagus cuniculus
# Set-up: dose 10 mg/kg, route oral
# run parameters: in vivo
parameter measured: Cmax (ng/mL)
Expressed in ng/mL, but write only the number.

For record `COC(=O)N(C)c1cc2c(NCc3ccc(OC)c(Cl)c3)ncnc2c(CCO)c1OC.Cl` the listed Cmax is 870

====

# experimental protocol: Inhibition of bovine heart PDE1
# Set-up: species or system Bos taurus
parameter measured: pIC50
// returns pIC50 (minus log10 of molar concentration), number only

Value of pIC50 reported for the compound `COC(=O)N(C)c1cc2c(NCc3ccc(OC)c(Cl)c3)ncnc2c(CCO)c1OC` is 4.92

====

# experimental protocol: Metabolic stability in rat liver microsomes assessed as compound remaining after 1 hr
# Type: ADME, Microsome
# run parameters: read-out: Stability
parameter measured: remaining at 1 h (%)
Use % as the unit, but write only the number.

Sure, the documented remaining at 1 h for `CCC(=O)Nc1cc2c(NCc3ccc(OC)c(Cl)c3)ncnc2c(CCO)c1OC` is 96

====

# experimental protocol: Permeability across human Caco-2 cells
# Type: ADME, cell-based
# run parameters: read-out: permeability
Form field: Papp (one value per entry).
# value in ×10⁻⁶ cm/s; strip the unit string

// recorded Papp for `COC(=O)N(C)c1cc2c(NCc3ccc(OC)c(Cl)c3)ncnc2c(CCO)c1OC` : 35

Next up:
Briefly, Papp measured for `CCC(=O)N(C)c1cc2c(NCc3ccc(OC)c(Cl)c3)ncnc2c(CCO)c1OC` : 17
